In this section, each of the molecules is paired with its reported IC50.
- Tested on: SARS-CoV-2
- measurement-notes: microbe, parasite or virus in culture
- measurement-context: Severe acute respiratory syndrome coronavirus 2, Vero C1008, 48 h, read-out: pIC50 (converted)

Before answering, review these 7 worked examples.
C[C@H]1C[C@@H]2[C@H]([C@@H](O)C[C@@]3(C)[C@H]2CC[C@]3(O)C(=O)CO)[C@@]2(C)C=CC(=O)C=C12 | > 20 µM
COc1cc2c(c(OC)c1OC)-c1c(cc3c(c1OC)OCO3)C[C@H](C)[C@@](C)(O)C2 | > 20 µM
COc1nc2ccc(Br)cc2cc1[C@@H](c1ccccc1)[C@@](O)(CCN(C)C)c1cccc2ccccc12 | > 20 µM
NNCCc1ccccc1 | > 20 µM
COc1ccc([C@@H]2CNC(=O)[C@@H](Cc3cccc(C)c3)C2)cc1OC1CCCC1 | > 20 µM
OC[C@@H]1CCCN2CCCCC12 (stereo partly drawn) | > 20 µM
COCCNCc1ccc(-c2cc3nccc(Oc4ccc(NC(=O)C5(C(=O)Nc6ccc(F)cc6)CC5)cc4F)c3s2)nc1 | > 20 µM

The record that follows has no IC50 shown yet.
Entry under test: `CC[C@@H]1[C@H](F)C(=O)N[C@@H]1COc1nccc2cc(C(N)=O)c(OC)cc12` . Its IC50 was > 20 µM

###

- System: SARS-CoV-2
- measurement-notes: microbe, parasite or virus in culture
- measurement-context: Severe acute respiratory syndrome coronavirus 2, Vero C1008, 48 h, read-out: pIC50 (converted)
property-measured: IC50

CC(C)(O)[C@@H]1CC[C@](C)(C2[C@@H](O)C[C@@]3(C)[C@H]4C[C@H](O[C@H]5OC(CO)[C@H](O)C(O)C5O)[C@H]5C(C)(C)C(O[C@@H]6OC[C@@H](O)C(O)C6O)CC[C@@]56C[C@@]46CC[C@]23C)O1 (stereo not given in full) | > 20 µM
O=C(Nc1c[nH]nc1-c1nc2ccc(CN3CCOCC3)cc2[nH]1)NC1CC1 | > 20 µM
NC(=O)Oc1ccc(Cc2ccccc2)cc1 | > 20 µM
O=c1[nH]c(=O)n([C@H]2C[C@H](O)[C@@H](CO)O2)cc1C(F)(F)F | > 20 µM
[O-][N+]1=C(c2ccccc2)c2cc(Cl)ccc2N=C(NCC2CC2)C1 | > 20 µM

Entry under test: `Cc1cccc(Cl)c1NC(=O)CCN1CCC[C@H]2CCC[C@@H]21` . Its IC50 was > 20 µM

Entry under test: `C=CCc1ccc(OC)cc1` . Its IC50 was > 20 µM

Entry under test: `O=C1Nc2ccccc2/C1=C1/Nc2ccccc2C1=O` . Its IC50 was > 20 µM

Entry under test: `C=C[C@](C)(O)CC[C@H]1C(=C)C[C@H](OC(C)=O)[C@H]2C(C)(C)CCC[C@]12C` . Its IC50 was > 20 µM

Entry under test: `O=C(CCCN1CCC(O)(c2cccc(C(F)(F)F)c2)CC1)c1ccc(F)cc1` . Its IC50 was > 20 µM

Entry under test: `O=C(O)CC[N+](=O)[O-]` . Its IC50 was > 20 µM

Entry under test: COc1ccc2c3c1OC1C(O)C=CC4C(C2)[N+](C)(C)CCC341 (stereo not given) . Its IC50 was > 20 µM

Entry under test: `CN(C)C(=O)Oc1cccc([N+](C)(C)C)c1` . Its IC50 was > 20 µM

Entry under test: CC(C)N(CCC(C(N)=O)(c1ccccc1)c1ccccn1)C(C)C (stereo not given) [DISOPYRAMIDE] . Its IC50 was > 20 µM

Entry under test: CNC(=O)COc1ccccc1OCC(O)CNC(C)(C)C (stereo not given) . Its IC50 was > 20 µM

Entry under test: `C=C[C@@]1(C)CC(=O)[C@]2(O)[C@@]3(C)[C@@H](O)CCC(C)(C)[C@@H]3[C@H](O)[C@H](OC(C)=O)[C@@]2(C)O1` . Its IC50 was > 20 µM

Entry under test: `CCCCN1C[C@H](O)[C@@H](O)[C@H](O)[C@H]1CO` . Its IC50 was > 20 µM

Entry under test: CCOC(=O)C1(c2ccccc2)CCN(CCC(C#N)(c2ccccc2)c2ccccc2)CC1 [DIPHENOXYLATE] . Its IC50 was > 20 µM

Entry under test: CC12CCC3C(CCC4CC(N)C(O)CC43C)C1CCC2=O (stereo not given) . Its IC50 was > 20 µM

Entry under test: O=C1CN2Cc3c(ccc(Cl)c3Cl)N=C2N1 [ANAGRELIDE] . Its IC50 was > 20 µM

Entry under test: `CC1(C)CN(C(=O)c2ccc(-c3cccc4nc(NC(=O)C5CC5)nn34)cc2)C1` . Its IC50 was > 20 µM
